Sourced from patent US20210238260

- tgt: Factor X, P00742
- Sequence (P00742 whole entry, looked up): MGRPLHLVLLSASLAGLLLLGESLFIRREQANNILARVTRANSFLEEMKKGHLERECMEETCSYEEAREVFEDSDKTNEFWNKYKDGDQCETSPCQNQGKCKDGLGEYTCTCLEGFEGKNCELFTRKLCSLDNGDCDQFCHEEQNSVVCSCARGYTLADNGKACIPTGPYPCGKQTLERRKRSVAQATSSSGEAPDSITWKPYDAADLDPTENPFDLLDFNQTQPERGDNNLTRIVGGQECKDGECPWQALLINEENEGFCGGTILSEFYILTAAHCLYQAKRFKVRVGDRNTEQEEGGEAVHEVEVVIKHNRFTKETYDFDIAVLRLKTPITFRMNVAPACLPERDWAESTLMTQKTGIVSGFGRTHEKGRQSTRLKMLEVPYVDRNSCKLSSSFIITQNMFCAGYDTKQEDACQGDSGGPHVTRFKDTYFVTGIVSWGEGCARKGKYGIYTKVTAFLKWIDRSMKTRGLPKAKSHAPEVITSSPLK
Assign Fulfilled to entries whose kcat meets or exceeds 4 s⁻¹; assign Not fulfilled to the rest.

Examples from the recorded data:
FIXa-Y155F/K247N/N249S/R338E/T343R (protein) chain 1: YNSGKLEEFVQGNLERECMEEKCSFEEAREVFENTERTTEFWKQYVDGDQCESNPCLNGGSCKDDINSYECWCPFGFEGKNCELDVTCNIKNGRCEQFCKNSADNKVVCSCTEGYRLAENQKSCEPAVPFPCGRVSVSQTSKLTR chain 2: VVGGEDAKPGQFPWQVVLNGKVDAFCGGSIVNEKWIVTAAHCVETGVKITVVAGEHNIEETEHTEQNRSVIRIIPHHNYNAAINKYNHDIALLELDEPLVLNSYVTPICIADKEYTNIFLKFGSGYVSGWGRVFHKGRSALVLQYLRVPLVDRATCLESTKFRIYNNMFCAGFHEGGRDSCQGDSGGPHVTEVEGTSFLTGIISWGEECAMKGKYGIYTKVSRYVNWIKEKTKLT ... Fulfilled
FIXa-Y155F/R318Y/T343R/R403E/E410N (protein) chain 1: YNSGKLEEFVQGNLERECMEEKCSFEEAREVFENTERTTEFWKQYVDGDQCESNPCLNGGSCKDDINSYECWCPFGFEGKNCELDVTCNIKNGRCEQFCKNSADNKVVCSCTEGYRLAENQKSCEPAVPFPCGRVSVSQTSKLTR chain 2: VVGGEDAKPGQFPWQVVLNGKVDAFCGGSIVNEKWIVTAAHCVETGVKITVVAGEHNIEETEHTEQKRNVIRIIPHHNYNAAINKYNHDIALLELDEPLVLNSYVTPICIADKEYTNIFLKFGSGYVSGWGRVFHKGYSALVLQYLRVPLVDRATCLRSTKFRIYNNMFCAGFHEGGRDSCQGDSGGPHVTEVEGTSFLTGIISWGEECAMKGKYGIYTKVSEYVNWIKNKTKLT ... Fulfilled
FIXa-Y155F/K247N/N249S/R318Y/E410N (protein) chain 1: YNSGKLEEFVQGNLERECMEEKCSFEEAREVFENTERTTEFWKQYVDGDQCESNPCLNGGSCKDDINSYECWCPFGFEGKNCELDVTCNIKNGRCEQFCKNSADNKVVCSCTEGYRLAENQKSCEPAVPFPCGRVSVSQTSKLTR chain 2: VVGGEDAKPGQFPWQVVLNGKVDAFCGGSIVNEKWIVTAAHCVETGVKITVVAGEHNIEETEHTEQNRSVIRIIPHHNYNAAINKYNHDIALLELDEPLVLNSYVTPICIADKEYTNIFLKFGSGYVSGWGRVFHKGYSALVLQYLRVPLVDRATCLRSTKFTIYNNMFCAGFHEGGRDSCQGDSGGPHVTEVEGTSFLTGIISWGEECAMKGKYGIYTKVSRYVNWIKNKTKLT ... Not fulfilled

Could you now consider this next protein?
Determine whether measured kcat meets or exceeds 4 s⁻¹ for FIXa-Y155F/K247N/N249S/T343R/R403E (protein) chain 1: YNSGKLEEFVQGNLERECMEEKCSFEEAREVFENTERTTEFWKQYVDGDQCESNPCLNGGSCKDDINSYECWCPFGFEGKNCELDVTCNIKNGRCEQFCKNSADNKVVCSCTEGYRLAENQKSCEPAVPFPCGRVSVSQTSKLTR chain 2: VVGGEDAKPGQFPWQVVLNGKVDAFCGGSIVNEKWIVTAAHCVETGVKITVVAGEHNIEETEHTEQNRSVIRIIPHHNYNAAINKYNHDIALLELDEPLVLNSYVTPICIADKEYTNIFLKFGSGYVSGWGRVFHKGRSALVLQYLRVPLVDRATCLRSTKFRIYNNMFCAGFHEGGRDSCQGDSGGPHVTEVEGTSFLTGIISWGEECAMKGKYGIYTKVSEYVNWIKEKTKLT
Fulfilled
